- system.under.test: HDAC2 (Homo sapiens, UniProt Q92769)
- Construct: purchased Enzo Life Sciences
- Sequence (Q92769 whole entry): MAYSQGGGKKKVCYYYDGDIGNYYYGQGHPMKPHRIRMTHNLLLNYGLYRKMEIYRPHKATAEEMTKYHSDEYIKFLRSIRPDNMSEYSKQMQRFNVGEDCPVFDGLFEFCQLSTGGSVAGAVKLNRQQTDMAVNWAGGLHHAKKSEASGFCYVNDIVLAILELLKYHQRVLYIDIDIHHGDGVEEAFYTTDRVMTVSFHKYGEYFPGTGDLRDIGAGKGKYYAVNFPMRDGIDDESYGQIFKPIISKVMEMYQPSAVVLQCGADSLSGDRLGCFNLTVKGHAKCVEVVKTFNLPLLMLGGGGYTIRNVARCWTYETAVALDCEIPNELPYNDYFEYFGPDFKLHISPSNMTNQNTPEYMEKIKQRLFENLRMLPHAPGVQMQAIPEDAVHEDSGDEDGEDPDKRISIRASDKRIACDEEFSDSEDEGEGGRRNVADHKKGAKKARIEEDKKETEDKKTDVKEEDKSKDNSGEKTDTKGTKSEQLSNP
- procedure.details: HDAC Inhibition Screening Assay (FLUOR DE LYS Fluorimetric Drug Discovery Kit), HDAC2
- Type: biochemical
- reported.conditions: 10 μM compound
Listed molecules paired with reported inhibition at 10 µM

{"molecule": "Nc1cc(F)ccc1NC(=O)/C=C/c1ccc2c(c1)CCCC2OCc1cc(C(F)(F)F)cc(C(F)(F)F)c1 (stereo not drawn)", "reported.measurement": "< 50%"}
{"molecule": "Nc1cc(F)ccc1NC(=O)c1ccc(COc2ccc3c(c2)CC(Cc2cc(C(F)(F)F)cc(C(F)(F)F)c2)C3=O)cc1 (stereo not drawn)", "reported.measurement": "< 50%"}
{"molecule": "Cc1[nH]c2ccccc2c1CCNC1CCCc2cc(/C=C/C(=O)Nc3ccc(F)cc3N)ccc21 (stereo not drawn)", "reported.measurement": "> 80%"}
{"molecule": "Nc1cc(F)ccc1NC(=O)/C=C/c1ccc2c(c1)CCC2NS(=O)(=O)c1cc(C(F)(F)F)cc(C(F)(F)F)c1 (stereo not drawn)", "reported.measurement": "< 50%"}

Consider the additional molecule presented here.
Tested system HDAC2 (Homo sapiens, UniProt Q92769); inhibition at 10 µM recorded for O=C(/C=C/c1ccc2c(c1)CCCC2NCCc1c[nH]c2ccccc12)NO (stereo not drawn) was > 80%
